# Tested on: human cartilage explants
# assay_text: Human cartilage explant assay (IL-1 induced nitrite production)
# Assay type: cell-based
# condition_summary: Homo sapiens; inhibition of nitrite production, IL-1 stimulated explants
Threshold 800 nM. IC50 below it: fulfilled. IC50 at it or above: not fulfilled.

stdin: Report whether reported IC50 is lower than 800 nM (strictly) for CC(=N)NC/C(F)=C\CC[C@](C)(N)C(=O)O.Cl.Cl [Example HH, dihydrochloride]
stdout: fulfilled

---

# System: inducible nitric oxide synthase activity in vivo
# assay_text: In vivo assay: LPS-induced plasma nitrite/nitrate in endotoxin-treated rats
# Design: species or system rat
# condition_summary: Rattus norvegicus; oral administration; plasma nitrite/nitrate 5 hr post-treatment
Counter-ions that a name gives are not always drawn.
recorded_endpoint: ED50

Consider the worked cases shown below.
[
  {
    "compound": "CC(=N)NC/C(F)=C/CC[C@H](N)C(=O)O [Example D, trihydrochloride, dihydrate]",
    "target_or_test_system": "inducible nitric oxide synthase activity in vivo",
    "experimental_result": "> 10 mg/kg"
  },
  {
    "compound": "CC(=NO)NC/C(F)=C\\CC[C@H](N)C(=O)O",
    "target_or_test_system": "inducible nitric oxide synthase activity in vivo",
    "experimental_result": "< 0.1 mg/kg"
  },
  {
    "compound": "CC(=N)NC/C(F)=C\\CC[C@H](N)C(=O)O [Example A, dihydrochloride]",
    "target_or_test_system": "inducible nitric oxide synthase activity in vivo",
    "experimental_result": "< 0.1 mg/kg"
  },
  {
    "compound": "CC(=N)NC/C=C\\CC[C@](C)(N)C(=O)O",
    "target_or_test_system": "inducible nitric oxide synthase activity in vivo",
    "experimental_result": "0.3 mg/kg"
  },
  {
    "compound": "Cl.N=C1CCCC[C@H](CCCC[C@@H](N)C(=O)O)N1.O.O.O",
    "target_or_test_system": "inducible nitric oxide synthase activity in vivo",
    "experimental_result": "< 3 mg/kg"
  },
  {
    "compound": "CC(=N)NC/C(F)=C\\CC[C@](C)(N)C(=O)O.Cl.Cl",
    "target_or_test_system": "inducible nitric oxide synthase activity in vivo",
    "experimental_result": "0.4 mg/kg"
  }
]

Kindly review the next compound as well.
stdin: Fill in: ED50 of CC(=N)NC/C(F)=C\CC[C@H](N)C(=O)Nc1nnn[nH]1 [Example H, dihydrochloride] is ___
stdout: < 0.3 mg/kg

---

# System: human cartilage explants
# assay_text: Human cartilage explant assay (IL-1 induced nitrite production)
# Type: cell-based
# condition_summary: Homo sapiens; inhibition of nitrite production, IL-1 stimulated explants
Counter-ions that a name gives are not always drawn.
recorded_endpoint: IC50 (nM)
Report as a plain number; the unit nM is understood.

Field: example entries. Status: answers known.
[
  {
    "compound": "CC(=N)NC/C=C\\CC[C@](C)(N)C(=O)O",
    "recorded_endpoint": "IC50",
    "experimental_result": 800
  },
  {
    "compound": "CC(=N)NCC(F)=CCC[C@H](N)C(=O)O (mixture of isomers) [Example B, dihydrochloride]",
    "recorded_endpoint": "IC50",
    "experimental_result": 200
  },
  {
    "compound": "CC(=N)NC/C(F)=C\\CC[C@H](N)C(=O)O [Example A, dihydrochloride]",
    "recorded_endpoint": "IC50",
    "experimental_result": 100
  }
]

Would you kindly look at the next entry?
stdin: Which value of IC50 has been reported for CC(=N)NC/C(F)=C/CC[C@H](N)C(=O)O [Example D, trihydrochloride, dihydrate] in the records?
stdout: 2500
